# Measured target: mouse Tas2r144 (Mus musculus)
# Construct: expressed in transfected cells; host or cells: HEK293T-Gα16gust44
# Sequence (Q7TQB8 whole entry): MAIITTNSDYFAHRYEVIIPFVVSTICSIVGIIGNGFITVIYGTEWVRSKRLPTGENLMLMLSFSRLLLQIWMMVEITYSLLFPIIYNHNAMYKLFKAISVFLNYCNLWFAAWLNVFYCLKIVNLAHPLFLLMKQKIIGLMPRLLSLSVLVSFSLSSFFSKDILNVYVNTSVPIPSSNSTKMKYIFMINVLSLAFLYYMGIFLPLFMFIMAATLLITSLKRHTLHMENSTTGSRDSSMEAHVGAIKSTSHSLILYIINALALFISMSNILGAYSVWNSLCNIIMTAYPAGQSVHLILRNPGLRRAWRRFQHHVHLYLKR
# Procedure text: Calcium imaging assay (FLIPR), HEK293T-Gα16gust44 cells transfected with mouse Tas2r144
# Assay type: cell-based
# Measurement context: Time 66.781 s
Hi there, I'd appreciate the recorded RLU for every entry that follows.
Express the result in RLU but write the number alone.

Read the entry C[C@H](CCC(=O)NCCS(=O)(=O)O)[C@H]1CC[C@H]2[C@@H]3CC[C@@H]4C[C@H](O)CC[C@]4(C)[C@H]3CC[C@]12C [Taurolithocholic Acid, taurolithocholic acid] and write its reported RLU.
428.264

Specify reported RLU for the molecule shown: C[C@H](CCC(=O)O)[C@H]1CC[C@H]2[C@@H]3[C@H](O)C[C@@H]4C[C@H](O)CC[C@]4(C)[C@H]3C[C@H](O)[C@]12C [Cholic Acid, cholic acid]
647.88

Using known records, supply RLU for C[C@H](CCC(=O)NCCS(=O)(=O)O)[C@H]1CC[C@H]2[C@@H]3[C@H](O)C[C@@H]4C[C@H](O)CC[C@]4(C)[C@H]3C[C@H](O)[C@]12C [Taurocholic Acid, taurocholic acid]
607.94

Give me measured RLU, please, for this molecule: C[C@H](CCC(=O)NCC(=O)O)[C@H]1CC[C@H]2[C@@H]3[C@H](O)C[C@@H]4C[C@H](O)CC[C@]4(C)[C@H]3C[C@H](O)[C@]12C [Glycocholic Acid, glycocholic acid]
447.834

All figures here come from paper PMC10247784.
